System: Lp(a) production in HepG2^K17 cells
Assay: LPA3 screen: inhibition of Lp(a) production in transfected HepG2 cells, Lp(a) in media by ELISA
Assay type: cell-based
Conditions: Homo sapiens, 8 hours incubation, 0.3 to 50 μM compound, Lp(a) normalized for total protein
measure name: IC50 (µM)
Answers are plain numbers, in µM.

Here are 3 molecules together with their reported answers.
> print(dat)
                                   molecule                    system.under.test  measure.name  units.of.measure  recorded.measurement
1  CC(=O)Nc1ccc(S(=O)(=O)N(Cc2cc(C(C)(C)C)c(O)c(C(C)(C)C)c2)c2cccnc2)cc1 [Example 8]  Lp(a) production in HepG2^K17 cells          IC50                µM                  12.5
2  CC(C)(C)c1ccc(S(=O)(=O)N(Cc2cc(C(C)(C)C)c(O)c(C(C)(C)C)c2)c2cccnc2)cc1 [Example 13]  Lp(a) production in HepG2^K17 cells          IC50                µM                  23.6
3  CC(C)(C)c1cc(CN(c2cccnc2)S(=O)(=O)c2cccs2)cc(C(C)(C)C)c1O [Example 7]  Lp(a) production in HepG2^K17 cells          IC50                µM                   8.9

For each of the molecules below, note its IC50.
1. CC(C)(C)c1cc(CN(c2cccnc2)S(C)(=O)=O)cc(C(C)(C)C)c1O [Example 12]
2. CC(C)(C)c1cc(CN(c2cccnc2)S(=O)(=O)c2cccc([N+](=O)[O-])c2)cc(C(C)(C)C)c1O [Example 10]
3. CC(C)(C)c1cc(CN(c2cccnc2)S(=O)(=O)c2ccc([N+](=O)[O-])cc2)cc(C(C)(C)C)c1O [Example 5]
4. CC(C)(C)c1cc(CN(c2cccnc2)S(=O)(=O)c2ccccc2)cc(C(C)(C)C)c1O [Example 11]
5. Cc1ccc(S(=O)(=O)N(Cc2cc(C(C)(C)C)c(O)c(C(C)(C)C)c2)c2cccnc2)cc1 [Example 3]
6. COc1ccc(S(=O)(=O)N(Cc2cc(C(C)(C)C)c(O)c(C(C)(C)C)c2)c2cccnc2)cc1 [Example 9]

[A]
1: 41.2; 2: 7.4; 3: 9.4; 4: 16.2; 5: 6.9; 6: 5.8

For each of the molecules below, note its IC50.
1. CC(C)(C)c1cc(CN(c2cccnc2)S(=O)(=O)c2ccc(F)cc2)cc(C(C)(C)C)c1O [Example 4]
2. CCOC(=O)C(c1cc(C(C)(C)C)c(O)c(C(C)(C)C)c1)N(CC1CCCCC1)S(C)(=O)=O (centres unmarked) [Example 2]

[A]
[7.5, 27.2]

FYI, the data here is from patent US6458815B2.
